# Tested on: Staphylococcus aureus
# protocol-summary: Inhibition of efflux pump in Gram-positive methicillin and oxacillin-resistant Staphylococcus aureus ATCC 43300 assessed as relative fluorescence index using ethidium bromide as substrate at 50 uM and measured after 1 hr by fluorescence based microtiter plate reader analysis
# Type: functional

{"compound": "CCOC(=O)C(c1ccc2ccccc2c1O)N1CCOCC1 (stereo not drawn)", "measured-on": "Staphylococcus aureus", "Activity": -0.28}
{"compound": "CCOC(=O)[C@H]1c2c(ccc3ccccc23)O[C@@H]2c3ccccc3CCN21 (relative stereo)", "measured-on": "Staphylococcus aureus", "Activity": 0.19}
{"compound": "CCOC(=O)[C@H]1c2ccc3ccccc3c2O[C@@H]2c3ccccc3CCN21 (relative stereo)", "measured-on": "Staphylococcus aureus", "Activity": 0.43}
{"compound": "CCOC(=O)[C@H]1c2c(ccc3ccccc23)O[C@@H]2c3[nH]c4ccccc4c3CCN21 (relative stereo)", "measured-on": "Staphylococcus aureus", "Activity": -0.03}
{"compound": "CCOC(=O)[C@H]1c2ccc3ccccc3c2O[C@@H]2c3[nH]c4ccccc4c3CCN21 (relative stereo)", "measured-on": "Staphylococcus aureus", "Activity": 0.09}
{"compound": "CCOC(=O)C(c1c(O)ccc2ccccc12)N1CCOCC1 (stereo not drawn)", "measured-on": "Staphylococcus aureus", "Activity": 0.12}
{"compound": "CCOC(=O)[C@H]1c2ccc3ccccc3c2O[C@@H]2c3ccsc3CCN21 (relative stereo)", "measured-on": "Staphylococcus aureus", "Activity": 0.3}
{"compound": "CCOC(=O)[C@H]1c2c(ccc3ccccc23)O[C@@H]2c3ccsc3CCN21 (relative stereo)", "measured-on": "Staphylococcus aureus", "Activity": 0.13}

====

# Test system: Staphylococcus aureus
# protocol-summary: Antibacterial activity against Gram-positive methicillin-susceptible Staphylococcus aureus ATCC 25923 assessed as inhibition of efflux pump by measuring intracellular accumulation of ethidium bromide at 100 uM and measured every minute for 1 hr by fluorescence based microtiter plate reader analysis
# Format: functional
Returns: string. Value is Y if measured Activity is below 30000, and N if it is greater than or equal to it.

{"molecule": "CCOC(=O)C(c1c(O)ccc2ccccc12)N1CCOCC1 (configuration not stated)", "measured-on": "Staphylococcus aureus", "class-name": "N"}
{"molecule": "CCOC(=O)[C@H]1c2c(ccc3ccccc23)O[C@@H]2c3ccsc3CCN21 (relative stereo)", "measured-on": "Staphylococcus aureus", "class-name": "N"}
{"molecule": "CCOC(=O)[C@H]1c2ccc3ccccc3c2O[C@@H]2c3ccsc3CCN21 (relative stereo)", "measured-on": "Staphylococcus aureus", "class-name": "N"}
{"molecule": "CCOC(=O)[C@H]1c2ccc3ccccc3c2O[C@@H]2c3ccccc3CCN21 (relative stereo)", "measured-on": "Staphylococcus aureus", "class-name": "N"}
{"molecule": "CCOC(=O)C(c1ccc2ccccc2c1O)N1CCOCC1 (configuration not stated)", "measured-on": "Staphylococcus aureus", "class-name": "Y"}
{"molecule": "CCOC(=O)[C@H]1c2c(ccc3ccccc23)O[C@@H]2c3ccccc3CCN21 (relative stereo)", "measured-on": "Staphylococcus aureus", "class-name": "N"}
